Biological target: UniProt Q15562
Test: biochemical
The following compounds are listed with their measured pIC50 values.
Keep it numeric: pIC50 is minus log10 of the concentration in mol/L.

compound | pIC50
C=CC(=O)NCc1cc(-c2ccc(OC(F)(F)F)cc2)c2nccn2c1CC [Compound 26] | 7.21
C=CC(=O)NCc1cc(-c2ccc(OC(F)(F)F)cc2)c2c(c1[C@H](O)CC#N)CCO2 (single isomer, unassigned) [Compound 91] | 7.47
C=CC(=O)NCc1nc(N2CCC(OC(F)(F)F)CC2)c2ncn(C)c2n1 [Compound 131] | 5.80
C=CC(=O)NCc1cc(-c2ccc(OC(F)(F)F)cc2)c2c(c1[C@H](O)[C@H](C)O)CCO2 (single isomer, unassigned) [Compound 89] | 7.47
C=CC(=O)NCc1cc(-c2ccc(OC(F)(F)F)cc2)c2ncsc2c1-c1noc(=O)[nH]1 [Compound 104] | 7.10

Record for O=C(NCc1cc(-c2ccc(OC(F)(F)F)cc2)c2nccnc2c1[C@@H](O)CO)C1=CCC1 [Compound 81] under target or system UniProt Q15562: pIC50 reported as 7.68

Case C=C(F)C(=O)NCc1cc(-c2ccc(OC(F)(F)F)cc2)c2ncn(C)c2c1CO [Compound 63] , UniProt Q15562, pIC50 recorded as 7.12

----------
Target: UniProt:Q15562
Test: biochemical
Entries and their measured IC50 follow.
A number alone suffices; assume nM.

Please review the following examples before continuing.
compound | testReadout | unitsText | measuredValue
CN(Cc1cc(-c2ccc(OC(F)(F)F)cc2)c2ncn(C)c2c1CO)C(=O)/C=C/CO | IC50 | nM | 510
C=CC(=O)N(C)Cc1cc(-c2ccc(OC(F)(F)F)cc2)c2c(c1[C@@H](O)CO)CCO2 (single isomer, unassigned) | IC50 | nM | 35
C=CC(=O)N1CC(c2nc(-c3ccc(OC(F)(F)F)cc3)c3ncsc3n2)C1 | IC50 | nM | 4.3

Per the record, C=CC(=O)NCc1cc(-c2ccc(OC(F)(F)F)cc2F)c2ncn(C)c2c1C#N has IC50 of 22

Record C=CC(=O)NCc1cc(-c2ccc(OC(F)(F)F)cc2)c2ncn(C)c2c1C(N)=O . Reported IC50: 230

The reported value for C/C=C(\C)C(=O)N1CC(c2nc(-c3ccc(OC(F)(F)F)cc3)c3ncn(C)c3n2)C1 in terms of IC50 is 840

----------
Target: TEAD2 (Homo sapiens, UniProt Q15562)
Sequence (Q15562 whole entry, species assumed): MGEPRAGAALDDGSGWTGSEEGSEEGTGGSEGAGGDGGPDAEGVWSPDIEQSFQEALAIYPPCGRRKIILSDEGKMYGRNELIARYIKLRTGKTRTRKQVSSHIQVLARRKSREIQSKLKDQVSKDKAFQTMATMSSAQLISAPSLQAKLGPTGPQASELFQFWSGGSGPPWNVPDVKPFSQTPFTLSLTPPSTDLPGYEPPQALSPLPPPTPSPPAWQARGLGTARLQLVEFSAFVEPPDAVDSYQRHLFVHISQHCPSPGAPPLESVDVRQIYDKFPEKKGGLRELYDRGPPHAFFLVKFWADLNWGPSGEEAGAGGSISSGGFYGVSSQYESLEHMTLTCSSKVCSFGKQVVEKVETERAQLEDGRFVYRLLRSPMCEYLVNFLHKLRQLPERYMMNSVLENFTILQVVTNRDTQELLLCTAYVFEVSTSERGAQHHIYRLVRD
Test: biochemical
The compounds listed here are annotated with their log10(IC50).
Response schema: value (number) is log10 of IC50 in units of nM.

Looking up C=CC(=O)NCc1cc(-c2ccc(OC(F)(F)F)cc2)c2ncccc2c1CO , I see its log10(IC50) listed as 1.04

Entry C#Cc1ccc(-c2cc(CNC(=O)C=C)c(CO)c3c2OCC3)cc1 — recorded log10(IC50) = 2.73

compound C=CC(=O)N(C)Cc1cc(-c2ccc(OC(F)(F)F)cc2)c2nccn2c1CO , log10(IC50) observed: 2.00

Notebook: C=CC(=O)N(C)Cc1cc(-c2ccc(OC(F)(F)F)cc2)c2ncccc2c1[C@H](O)CO (single isomer, unassigned) , log10(IC50) read as 1.08

The compound listed as C=C1CCN(Cc2nc(-c3ccc(OC(F)(F)F)cc3)c3ncn(C)c3n2)C1=O has a reported log10(IC50) of 3.04

----------
Reported pIC50 values for a set of compounds
Target: TEAD2 (Homo sapiens, UniProt Q15562)
Assay: biochemical
Notebook: values listed as pIC50 are -log10 of the concentration (mol/L).

compound | measuredValue
Cn1cnc2c(-c3ccc(OC(F)(F)F)cc3)nc(C3CN(C(=O)C4=CCC4)C3)nc21 | 8.31
C=CC(=O)NCc1cc(Oc2ccc(C(F)(F)F)cc2)c2ncccc2c1[C@@H](O)CO (single isomer, unassigned) | 8.06
C=CC(=O)NCc1cc(-c2ccc(OC(F)(F)F)cc2)c2ncccc2c1C#N | 7.29
O=C(C1=CCC1)N1CC(c2cc(-c3ccc(OC(F)(F)F)cc3)c3nccnc3c2[C@H](O)CO)C1 | 7.80
C=CC(=O)NCc1cc(-c2ccc(OC(F)(F)F)cc2)c2nccnc2c1[C@@H](C)O (single isomer, unassigned) | 7.82

Form: compound = C=CC(=O)NCc1nc(-c2ccc(OC(F)(F)F)cc2)c2occc2n1 ; pIC50 = 5.89

Measured pIC50, C=CC(=O)NCc1cc(-c2ccc(OC(F)(F)F)cc2)c2ncn(C)c2c1C#C[C@@H](O)CO : 7.89

----------
Molecular target: TEAD2 (Homo sapiens, UniProt Q15562);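 also: TR-FRET competition assay with His-tagged TEAD protein and a biotinylated lipid pocket probe, where probe displacement by compound lowers the signal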
Experiment: biochemical
The threshold is 20 nM. Values of IC50 beneath it are tagged MET; values meeting or exceeding it are tagged NOT MET.

Quick check: IC50 of C=CC(=O)NCc1cc(Oc2ccc(C(F)(F)F)cc2)c2ncccc2c1[C@H](O)CO (single isomer, unassigned) [Compound 147] under 20 nM?
MET

----------
Listed here: items and their measured log10 IC50.
Molecular target: TEAD4 (Homo sapiens, UniProt Q15561)
Sequence (Q15561 whole entry, species assumed): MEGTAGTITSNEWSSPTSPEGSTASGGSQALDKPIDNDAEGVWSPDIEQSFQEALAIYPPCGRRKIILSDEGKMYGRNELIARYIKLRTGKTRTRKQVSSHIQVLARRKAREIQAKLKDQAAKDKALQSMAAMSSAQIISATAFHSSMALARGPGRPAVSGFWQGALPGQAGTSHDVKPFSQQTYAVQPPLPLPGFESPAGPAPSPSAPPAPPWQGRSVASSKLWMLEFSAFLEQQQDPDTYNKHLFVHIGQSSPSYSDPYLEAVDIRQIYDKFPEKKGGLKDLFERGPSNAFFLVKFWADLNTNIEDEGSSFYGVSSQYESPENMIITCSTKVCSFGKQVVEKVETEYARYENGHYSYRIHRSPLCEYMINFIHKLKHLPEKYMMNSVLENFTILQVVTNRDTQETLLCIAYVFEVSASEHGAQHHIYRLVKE
Experiment: TR-FRET (Lipid HTRF) TEAD lipid pocket probe displacement assay, TEAD4
Type: binding
Settings: His-tagged TEAD4, biotinylated lipid pocket probe, 4 hours
Would you kindly interpret these values as log10 of IC50 expressed in nM?

Answered cases to consult:
molecule | log10 IC50
C=CC(=O)N1CC(c2nc(-c3ccc(OC(F)(F)F)cc3)c3ncsc3n2)C1 | 0.43
[2H]C([2H])=C([2H])C(=O)NCc1cc(-c2ccc(OC(F)(F)F)cc2)c2c(c1CO)CCO2 | 1.24
C=CC(=O)NCc1cc(-c2ccc(OC(F)(F)F)cc2)c2ncccc2c1C#N | 1.57
C=C(F)C(=O)NCc1cc(-c2ccc(OC(F)(F)F)cc2)c2ncn(C)c2c1CO | 1.90
C=CC(=O)NCc1cc(-c2ccc(C(F)(F)F)cc2)c2ncoc2c1[C@H](O)CO (single isomer, unassigned) | 2.23

Record for C=CC(=O)N(C)Cc1cc(-c2ccc(OC(F)(F)F)cc2)c2c(c1CO)CCO2 under target or system TEAD4 (Homo sapiens, UniProt Q15561): log10 IC50 reported as 0.49

Form field log10 IC50 for item C=CC(=O)NCc1cc(-c2ccc(OC(F)(F)F)cc2)c2cccnc2c1C on TEAD4 (Homo sapiens, UniProt Q15561): 1.20

----------
Observed IC50, system TEAD1 (Homo sapiens).
Hi! Could you send only the number? It should be in nM, unit omitted.

Solved entries:
compound | IC50 / nM
C=CC(=O)NCc1cc(-c2ccc(OC(F)(F)F)cc2)c2ncn(C(F)F)c2c1CO [Compound 39] | 8
C=C(F)C(=O)NCc1cc(-c2ccc(OC(F)(F)F)cc2)c2nccnc2c1[C@@H](O)CO [Compound 80] | 130

// IC50 value for C=CC(=O)NCc1nc(-c2ccc(OC(F)(F)F)cc2)c2ccccc2n1 [Compound 7] : 18

----------
Target: TEAD3 (Homo sapiens, UniProt Q99594)
Sequence (Q99594 whole entry, species assumed): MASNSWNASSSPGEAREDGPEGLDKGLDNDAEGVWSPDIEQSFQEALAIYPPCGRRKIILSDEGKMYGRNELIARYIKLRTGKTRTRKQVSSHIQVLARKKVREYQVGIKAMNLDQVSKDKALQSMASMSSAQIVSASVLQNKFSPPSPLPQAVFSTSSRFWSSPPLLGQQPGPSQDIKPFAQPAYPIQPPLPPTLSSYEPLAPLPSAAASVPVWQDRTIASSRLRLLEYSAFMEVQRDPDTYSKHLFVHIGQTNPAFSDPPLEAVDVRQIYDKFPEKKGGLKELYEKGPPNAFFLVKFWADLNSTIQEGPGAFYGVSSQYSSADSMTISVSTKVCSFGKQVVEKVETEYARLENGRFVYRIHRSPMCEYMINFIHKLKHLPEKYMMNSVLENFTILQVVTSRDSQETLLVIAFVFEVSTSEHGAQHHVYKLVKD
Recorded IC50 determines the label; the label ranges are class 0: < 200 nM; class 1: ≥ 200 nM and < 1000 nM; class 2: ≥ 1000 nM

compound | assignedCategory
C=C(F)C(=O)N1CC(c2cc(-c3ccc(OC(F)(F)F)cc3)c3ncn(C)c3c2CO)C1 [Compound 59] | class 1
C=CC(=O)NCc1cc(-c2ccc(C(F)(F)F)cc2)c2ncoc2c1[C@H](O)CO (single isomer, unassigned) [Compound 109] | class 0
C=CC(=O)NCc1cc(-c2ccc(OC(F)(F)F)cc2)c2ncn(C)c2c1[C@H](C)O (single isomer, unassigned) [Compound 139] | class 1
C=C(F)C(=O)N1CC(n2cc(-c3ccc(OC(F)(F)F)cc3)c3ncn(C)c3c2=O)C1 [Compound 136] | class 0
C=CC(=O)NCc1cc(-c2ccc(OC(F)(F)F)cc2)c2ncn(C)c2c1Cc1cn[nH]c1 [Compound 34] | class 2

Hello team, could you let me know which band the following compound falls into: C=CC(=O)NCc1cc(-c2ccc(OC(F)(F)F)cc2)c2ncccc2c1[C@@H](O)CO (single isomer, unassigned) [Compound 48]
class 2

Which IC50 category applies to C=CC(=O)NCc1cc(-c2ccc(OC(F)(F)F)cc2)c2c(c1[C@@H](O)CC#N)CCO2 (single isomer, unassigned) [Compound 92] here?
class 2

Form: Item = O=C(C1=CCC1)N1CC(c2cc(-c3ccc(OC(F)(F)F)cc3)c3nccnc3c2[C@H](O)CO)C1 [Compound 87] ; Class = ?
class 0

Bin this entry: C=CC(=O)NCc1nc(-c2ccc(OC(F)(F)F)cc2)c2ncsc2n1 [Compound 21]
class 0

Please indicate the class for C#Cc1ccc(-c2cc(CNC(=O)C=C)c(CO)c3c2OCC3)cc1 [Compound 93] based on its IC50.
class 2

Any idea which band C=CC(=O)NCc1cc(-c2ccc(OC(F)(F)F)cc2)c2c(c1[C@H](O)[C@H](C)O)CCO2 (single isomer, unassigned) [Compound 89] is in?
class 2

GET /class?item= C=CC(=O)NCc1cc(-c2ccc(OC(F)(F)F)cc2)c2nccnc2c1[C@@H](C)O (single isomer, unassigned) [Compound 82]
class 2

Looking at C=CC(=O)NCc1nc(-c2ccc(OC(F)(F)F)cc2)c2ncn(C)c2c1CO [Compound 73] , which class would you pick?
class 1

Form: Item = C=CC(=O)NCc1cc(Oc2ccc(C(F)(F)F)cc2)c2ncccc2c1[C@H](O)CO (single isomer, unassigned) [Compound 147] ; Class = ?
class 1
